Conditions: 328.15 K; 101.33 kPa; Liquid; Capillary tube (Ostwald / Ubbelohde) method
Numbers after ± are expanded uncertainties.
Catalogue of viscosity readings, one per entry.
Test readout: viscosity

Compound | Value reported
CCOS(=O)(=O)[O-].CC[N+]1(C)CCCC1 [1-ethyl-1-methylpyrrolidinium ethyl sulfate] | 71.2 ± 1.9 mPa·s
CCCC[N+]1(C)CCCC1.COS(=O)(=O)[O-] [1-butyl-1-methylpyrrolidinium methyl sulfate] | 86.1 ± 2.5 mPa·s
CC[N+](C)(CC)CC.COS(=O)(=O)[O-] [N,N-diethyl-N-methylethanaminium methyl sulfate] | 79.7 ± 2.3 mPa·s
